Tested on: DMPK
Protocol summary: DMPK knockdown by anti-TfR1 antibody-oligonucleotide conjugates in NHP myotubes
Type: cell-based, non-human primate
Setup conditions: conjugate with control DMPK-ASO, 72 hours, concentration not stated (0.5, 5, 50 nM tested)
Procedure: The purified complexes were then tested for cellular internalization and inhibition of the target gene, DMPK. Non-human primate (NHP) or DM1 (donated by DM1 patients) cells were grown in 96-well plates and differentiated into myotubes for 7 days. […] The relative amounts of remaining DMPK transcript in treated vs non-treated cells was were calculated and the results are shown in Table 14 and FIG. 20. […]
Value kind: % knockdown of DMPK in NHP cells using Antibody-DMPK ASO conjugate (%)
Respond numerically; units are % and should not be typed.

| Molecule | Value reported |
| --- | --- |
| 5-H12 (antibody, V domains shown) VH: QIQLQQSGPELVRPGASVKISCKASGYSFTDYCINWVNQRPGQGLEWIGWIYPGSGNTRYSERFKGKATLTVDTSSNTAYMQLSSLTSEDSAVYFCAREDYYPYHGMDYWGQGTSVTVSS VL: DIVLTQSPTSLAVSLGQRATISCRASESVDGYDNSFMHWYQQKPGQPPKLLIFRASNLESGIPARFSGSGSRTDFTLTINPVEAADVATYYCQQSSEDPWTFGGGTKLEIK | 88 |

Next:
Q: Output measured % knockdown of DMPK in NHP cells using Antibody-DMPK ASO conjugate for this item: 4-J22 (antibody, V domains shown) VH: EVQLQQSGAELVRSGASVKLSCTASGFNIKDYYIHWVKQRPEQGLEWIGWIDPENADTEYAPKFQGKATMTPDTSSNTAYLQLSSLTSEDTAVYYCYAWDYSMDYWGQGTSVTVSS VL: DVVMTQTPLSLSVSLGDQASISCRSSQSLVHSNGNTYLHWYLQKPGQSPKLLIYKVSNRFSGVPDRFSGSGSGTDFILKISRVEAEDLGVYFCSQNTHVPYTFGGGTRLEIK
Ans: 7
